# experimental.target: MPP8 CD (chromodomain, residues 55–116) (Homo sapiens)
# Construct: The MPP8 CD (residues 55–116) was cloned with a tobacco etch virus (TEV) protease cleavage site; His6 (N); TEV protease cleavage site (ENLYFQG) (N); made in house; host or cells: E. coli BL21 (DE3)
# Sequence (Q99549 55-116): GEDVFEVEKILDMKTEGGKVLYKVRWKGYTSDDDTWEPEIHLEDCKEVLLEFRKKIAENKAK
# assay.text: Isothermal titration calorimetry (ITC) of H3K9 and H3K9-like peptides titrated into MPP8 CD
# Assay type: binding
# test.context: 50 mM HEPES pH 7.4, 0.1 M NaCl, 0.5 mM TCEP, 25 °C, 50 μM MPP8 CD in cell, 750 μM peptide in syringe, single-site model
Non-standard residues stand in square brackets, D forms with d. Residues, ends and D or L forms follow the SMILES beside them. Lys(Me3) = C[N+](C)(C)CCCC[C@H](N)C(=O)O
metric.name: pKd
Lab note — pKd values are minus log10 of concentrations in M.

q: Quote pKd reported for CSCC[C@H](NC(=O)[C@@H](NC(=O)[C@H](CCCC[N+](C)(C)C)NC(=O)[C@H](CCCNC(=N)N)NC(=O)[C@H](C)NC(=O)[C@H](CCCNC(=N)N)NC(=O)[C@H](Cc1c[nH]cn1)NC(=O)[C@@H](NC(=O)[C@@H](N)CCCCN)C(C)C)[C@@H](C)O)C(=O)N[C@@H](CO)C(=O)N[C@@H](CCCCN)C(=O)N1CCC[C@H]1C(=O)O [G9a 179-190 K185me3] (H-KVHRAR[Lys(Me3)]TMSKP-OH) please.
a: 5.88

----------
# experimental.target: MPP8 CD (chromodomain, residues 55–116) (Homo sapiens)
# Construct: The MPP8 CD (residues 55–116) was cloned with a tobacco etch virus (TEV) protease cleavage site; His6 (N); TEV protease cleavage site (ENLYFQG) (N); made in house; host or cells: E. coli BL21 (DE3)
# assay.text: Isothermal titration calorimetry (ITC) of H3K9 and H3K9-like peptides titrated into MPP8 CD
# Type: binding
# test.context: 50 mM HEPES pH 7.4, 0.1 M NaCl, 0.5 mM TCEP, 25 °C, 50 μM MPP8 CD in cell, 750 μM peptide in syringe, single-site model
Non-standard residues stand in square brackets, D forms with d. Residues, ends and D or L forms follow the SMILES beside them. Lys(Me3) = C[N+](C)(C)CCCC[C@H](N)C(=O)O
metric.name: Kd (nM)
The response must be a number in nM with no trailing unit.

Examples with answers:
[
  {
    "compound": "CSCC[C@H](NC(=O)[C@@H](NC(=O)[C@H](CCCC[N+](C)(C)C)NC(=O)[C@H](CCCNC(=N)N)NC(=O)[C@H](C)NC(=O)[C@H](CCCCN)NC(=O)[C@H](Cc1ccccc1)NC(=O)[C@@H](NC(=O)[C@@H](N)CCCCN)C(C)C)[C@@H](C)O)C(=O)N[C@@H](CCCNC(=N)N)C(=O)N[C@H](C(=O)N[C@@H](CO)C(=O)O)C(C)C [ATF7IP 10-21 K16me3] (H-KVFKAR[Lys(Me3)]TMRVS-OH)",
    "experimental.target": "MPP8 CD (chromodomain, residues 55–116) (Homo sapiens)",
    "metric.name": "Kd",
    "endpoint.result": 193
  },
  {
    "compound": "CSCC[C@H](NC(=O)[C@@H](NC(=O)[C@H](CCCC[N+](C)(C)C)NC(=O)[C@H](CCCNC(=N)N)NC(=O)[C@H](C)NC(=O)[C@H](CCCNC(=N)N)NC(=O)[C@H](Cc1c[nH]cn1)NC(=O)[C@@H](NC(=O)[C@@H](N)CCCCN)C(C)C)[C@@H](C)O)C(=O)N1CCC[C@H]1C(=O)N[C@@H](CCCCN)C(=O)N[C@@H](CO)C(=O)N[C@H](C(=O)O)C(C)C [GLP 199-211 K205me3] (H-KVHRAR[Lys(Me3)]TMPKSV-OH)",
    "experimental.target": "MPP8 CD (chromodomain, residues 55–116) (Homo sapiens)",
    "metric.name": "Kd",
    "endpoint.result": 337
  },
  {
    "compound": "CC[C@H](C)[C@H](NC(=O)CNC(=O)[C@H](Cc1c[nH]cn1)NC(=O)[C@@H](NC(=O)[C@H](CO)NC(=O)[C@H](CCCC[N+](C)(C)C)NC(=O)[C@H](CC(C)C)NC(=O)[C@H](C)NC(=O)[C@H](Cc1ccccc1)NC(=O)CNC(=O)[C@@H](N)CCCNC(=N)N)[C@@H](C)O)C(=O)O [SETDB1 1165-1175 K1170me3] (H-RGFAL[Lys(Me3)]STHGI-OH)",
    "experimental.target": "MPP8 CD (chromodomain, residues 55–116) (Homo sapiens)",
    "metric.name": "Kd",
    "endpoint.result": 1550
  }
]

q: Specify reported Kd for the compound shown: C[C@H](NC(=O)[C@H](CCCCN)NC(=O)CNC(=O)CNC(=O)[C@@H](NC(=O)[C@H](CO)NC(=O)[C@H](CCCC[N+](C)(C)C)NC(=O)[C@H](CCCNC(=N)N)NC(=O)[C@H](C)NC(=O)[C@@H](NC(=O)[C@H](CCC(N)=O)NC(=O)[C@@H](N)CCCCN)[C@@H](C)O)[C@@H](C)O)C(=O)O [H3.1 4-15 K9me3, reference compound]
a: 769
